Consider the following variants; for each one, report its protein stability index.
B1: MYL5 (parent)
chain: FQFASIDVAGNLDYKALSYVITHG

variants of: B1; test: protein stability index of a GFP-peptide fusion (GPS, HEK-293T) (PSI 1-6); higher = more stable; settings: c terminus: a fixed tail appended;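 also: lentivirally expressed fusions sorted by FACS into six bins by GFP to DsRed ratio, PSI derived from sequencing read proportions per bin multiplied by bin number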
Numbers only.

Residue change: Y19E
Reading: 2.89

Give protein stability index for each listed item.
1. I6Q
2. A16K

2.92
2.25

This collection of values is drawn from the supplement of paper PMC10567573.
